src = PubChem BioAssay (NCI)

Tested on: ACHN renal
experimental_protocol: NCI-60 one-dose screen, 48 h (100 = growth as untreated, 0 = no growth, -100 = all killed)
experimental_setup: 10 µM unless noted
The panel holds about 83,000 compounds, 20% with a hit somewhere; the sample as a whole holds those more often. Activity calls are given as the source filed them. Rule for the calls: active = growth percent below 10; inactive = the rest.
// growth lookup, one value per entry

compound: CN1C(=O)N(C)C2C1NN=c1s/c(=C\c3ccccc3)c(=O)n12 (stereo not given)
target_under_test: ACHN renal
growth: 29.4% (inactive)
--
compound: NC(=S)N/N=C/Cc1ccccc1
target_under_test: ACHN renal
growth: 102% (inactive)
--
compound: Cc1ccc2[nH]c(=O)c3c(c2c1)OC(N)=C(C#N)C31c2cc(Br)ccc2-c2ccc(Br)cc21
target_under_test: ACHN renal
growth: 62.3% (inactive)
--
compound: CCN(CC)CCCNc1ccc(Nc2ccc(OC)cc2)cc1
target_under_test: ACHN renal
growth: 94.1% (inactive)
--
compound: O=C1N=c2cc3c(cc2=C/C1=C/c1sc(=S)n(CCc2ccc(O)cc2)c1O)OCCO3
target_under_test: ACHN renal
growth: 6.54% (active)
--
compound: O=C(N/N=C/C=C/c1ccc([N+](=O)[O-])o1)c1cc2ccccc2cc1O
target_under_test: ACHN renal
growth: -3% (active)
--
compound: CC1SC(c2ccc(OCc3ccccc3)cc2)N(NC(=O)C(O)(c2ccccc2)c2ccccc2)C1=O (stereo not given)
target_under_test: ACHN renal
growth: 55.3% (inactive)
--
compound: O=C(Nc1ccc(Cl)cc1)Nc1ccc(Cl)c(C(F)(F)F)c1
target_under_test: ACHN renal
growth: 0.165% (active)
--
compound: C=CCNc1nc(NN2C(=O)c3cccc4cccc(c34)C2=O)nc(-n2cnc3ccccc32)n1
target_under_test: ACHN renal
growth: 64.8% (inactive)
--
compound: Cc1cc(NCc2cc(Nc3ccnc4cc(Cl)ccc34)ccc2F)nc(N2CCN(c3ccccc3)CC2)n1
target_under_test: ACHN renal
growth: 69.2% (inactive)
